- Test system: TK-10 renal
- Protocol Notes: NCI tumour cell line growth inhibition, 48 h
Readout Type: TGI

Input: Field request: TGI | item: CCOC(=O)C1(C(=O)OCC)CSC1
Output: > 100 µM

Input: Field request: TGI | item: c1cc2cc(c1)CN1CCNCCN(CCNCC1)Cc1cccc(c1)CN1CCNCCN(CCNCC1)C2
Output: > 100 µM

Input: Field request: TGI | item: O=C(N/N=C/C=C/c1ccc([N+](=O)[O-])o1)c1ccc(Br)s1
Output: 46.5 µM

Input: Field request: TGI | item: O=C1CCCC(=O)C1=C(O)CCCCCCCCCCc1ccccc1
Output: > 100 µM

Input: Field request: TGI | item: COc1ccc(N=Nc2c(C)c(C#N)c(=S)n(C3OC(COC(C)=O)C(OC(C)=O)C(OC(C)=O)C3OC(C)=O)c2-c2ccccc2)cc1 (stereo not given)
Output: 34.2 µM

Input: Field request: TGI | item: Cc1ccc(NC(=O)C(=O)C2NC(=S)NC2=O)c([N+](=O)[O-])c1 (stereo not given)
Output: > 100 µM

Input: Field request: TGI | item: Cn1ccnc1C(=O)/C=C/c1ccc(C(=O)Nc2ccccc2O)cc1
Output: 12.7 µM

Input: Field request: TGI | item: CCCN1CN(c2ccccc2)C2(CCN(CCCC(=O)c3ccc(F)cc3)CC2)C1=O
Output: 22.4 µM

Input: Field request: TGI | item: COP(=O)(OC)C(O)/C=C(\Cl)c1ccc(Cl)cc1 (stereo not given)
Output: > 100 µM

Input: Field request: TGI | item: COc1ccc(/C(=N\O)c2cc(OC)c(OC)c(OC)c2)c(OC)c1N
Output: > 100 µM

Input: Field request: TGI | item: CO/N=C(\COc1ccc2c(c1)oc(=O)c1cc(OC)ccc12)c1cccc(OC)c1
Output: > 100 µM

Input: Field request: TGI | item: CC(C)(C)c1cn2cccc(C(=O)N3CCN(CC(=O)Nc4ccc(Cl)cc4C(=O)c4ccccc4Cl)CC3)c2n1
Output: > 100 µM

Input: Field request: TGI | item: CC(C)C(Sc1nc(-c2ccccc2)c(-c2ccccc2)[nH]1)C(=O)N/N=C/c1ccc([N+](=O)[O-])cc1 (stereo not given)
Output: > 100 µM

Input: Field request: TGI | item: CCCC(=O)Nc1cc([N+](=O)[O-])c([N+](=O)[O-])cc1OC
Output: 31 µM

Input: Field request: TGI | item: CCN(CC)CCC(=O)N1CCc2c([nH]c3ccccc23)C1c1cccnc1 (stereo not given)
Output: > 100 µM

Input: Field request: TGI | item: O=c1[nH]c(=O)n(C2OC(CO)C(O)C2O)cc1OCCc1ccccc1 (stereo not given)
Output: > 100 µM

Every entry's value here was drawn from PubChem BioAssay (NCI).
